Data provenance is patent US8357687B2.

For each record, write down the corresponding pIC50.
target: HCV NS5B polymerase (NS5BΔC21) (Hepatitis C virus genotype 1b); construct: NS5B (genotype 1b consensus strain Con1) lacking 21 C-terminal residues; made in house; host or cells: E. coli Rosetta 2 (DE3); assay: RNA-dependent RNA polymerase assay (enzyme inhibition assay); assay type: biochemical, HCV (genotype 1b consensus strain Con1)
Numbers only, as −log10 of the molar value.

Take a look at these entries with their results.
CN1CCCCCNC(=O)COc2cc(F)ccc2-c2c(C3CCCCC3)c3ccc(cc3n2C)C(=O)NS1(=O)=O 6.96
CN1CCCCNC(=O)COc2ccccc2-c2c(C3CCCCC3)c3ccc(cc3n2C)C(=O)NS1(=O)=O 5.74
CN1CCCCCNC(=O)COc2ccccc2-c2c(C3CCCCC3)c3ccc(cc3n2C)C(=O)NS1(=O)=O 6.83
CN1CCOCCN(C)S(=O)(=O)NC(=O)c2ccc3c(C4CCCCC4)c(n(C)c3c2)-c2ccccc2OCC1=O 6.79

Exercise: GET /values?readout=pIC50&item= CN1CCCCN(C)S(=O)(=O)NC(=O)c2ccc3c(C4CCCCC4)c(n(C)c3c2)-c2ccccc2OCC1=O
Solution: 6.91

---

Measurement record for NS5B wild-type enzyme genotype 1a (Hepatitis C virus genotype 1a, UniProt P27958); quantity recorded: Kd.
One number for each entry, in nM.

Take a look at these entries with their results.
MOLECULE	U	Kd
CN1CCCCNC(=O)COc2ccccc2-c2c(C3CCCCC3)c3ccc(cc3n2C)C(=O)NS1(=O)=O [Compound 32]	nM	3300
CN1CCCCCNC(=O)COc2ccc(F)cc2-c2c(C3CCCCC3)c3ccc(cc3n2C)C(=O)NS1(=O)=O [Compound 51]	nM	39

Exercise: Value wanted: Kd (NS5B wild-type enzyme genotype 1a (Hepatitis C virus genotype 1a, UniProt P27958)) of entry CN1CCCCCNC(=O)COc2cc(F)ccc2-c2c(C3CCCCC3)c3ccc(cc3n2C)C(=O)NS1(=O)=O [Compound 50]
Solution: 40
